System name: VHR (Homo sapiens, UniProt P51452)
Sequence (P51452 whole entry): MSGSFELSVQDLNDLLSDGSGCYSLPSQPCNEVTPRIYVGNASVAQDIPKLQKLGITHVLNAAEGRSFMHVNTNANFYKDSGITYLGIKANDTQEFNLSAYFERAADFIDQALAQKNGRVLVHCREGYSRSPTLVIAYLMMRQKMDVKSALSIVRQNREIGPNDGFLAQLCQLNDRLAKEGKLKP
Measured attribute: pKi
// field semantics: pKi = negative decimal log of concentration (mol/L)

INPUT: Quote pKi reported for O=C1/C(=C/C=C/c2ccccc2)SC(=S)N1CCS(=O)(=O)O please.
OUTPUT: 6.09
